Values from patent US11207283B2

tested target: TgOAT
condition: time-dependent inactivators; pH 8.0, 37° C.
The compounds listed here are annotated with their kinact (rate constant of enzyme inactivation).
Please reply with the bare figure in min⁻¹ and do not write the unit itself.

# query: kinact (rate constant of enzyme inactivation) of entry NCc1c(CC(=O)O)cccc1C(F)(F)F [Compound 11]
5.4

Further cases:
Please give the measured kinact (rate constant of enzyme inactivation) for this compound: NC1CC(C(=O)O)CC1F (stereo not drawn) [Compound 7]
11

Which value of kinact (rate constant of enzyme inactivation) has been reported for NC1CC(C(=O)O)CC1(F)F (stereo not drawn) [Compound 8] in the records?
7.8

====

tested target: TgOAT
condition: time-dependent inactivators
// 0 (no) strictly below 600 M⁻¹ s⁻¹ in kinact/KI; 1 (yes) otherwise

Evaluate NC1CC(C(=O)O)CC1F (centres unmarked) [Compound 7] : kinact/KI at minimum 600 M⁻¹ s⁻¹?
0 (no)

Given NC1CC(C(=O)O)CC1=C(Cl)Cl (centres unmarked) [Compound 5] , state whether its kinact/KI is at least 600 M⁻¹ s⁻¹.
1 (yes)

# bool: kinact/KI of NC1CC(C(=O)O)CC1=C(C(F)(F)F)C(F)(F)F (centres unmarked) [Compound 2] >= 600 M⁻¹ s⁻¹
1 (yes)

For the next question, use this molecule.
Hi team, for C=CC(N)CCC(=O)O (centres unmarked) [Compound 22, 4-am inohex-5-enoic acid, reference compound] , is the recorded kinact/KI at or above 600 M⁻¹ s⁻¹?
0 (no)

====

tested target: TgOAT
condition: read-out: Ki (reversible inhibition); reversible inhibitors; calculated from the IC50 value
readout kind: Ki (mM)
Unit mM implied. Number only.

Returns the measured Ki for the input compound. Input: "NCc1csc(C(=O)O)c1"
4.9

Which Ki value belongs to "NCc1cscc1C(=O)O" ?
4.2

Here is another compound to look at.
GET /values?readout=Ki&item= "C[C@@H](F)[C@@H](N)CCC(=O)O"
2.9

====

tested target: TgOAT
condition: time-dependent inactivators; pH 8.0, 37° C.
Hi all, reminder that labels come from kinact (rate constant of enzyme inactivation), split as bin 0 = under 4 min⁻¹, bin 1 = from 4 min⁻¹ up to 5 min⁻¹, bin 2 = 5 min⁻¹ and over

Lab note: which band did N[C@H](CF)CCC(=O)O [Compound 18, (S)-4-amino-5-fluoropentanoic acid] land in?
bin 2

Class label required: NC1CC(C(=O)O)C=C1C(F)(F)C(F)(F)F (stereo not shown)
bin 0

Which category does the recorded kinact (rate constant of enzyme inactivation) put "N[C@H]1C[C@@H](C(=O)O)CC1=C(F)F" in?
bin 2

Kindly identify the class of NC1CC(C(=O)O)CC1=CC(F)(F)F (stereo not shown) [Compound 3] .
bin 0

Kindly state the category for this compound: NC1CC(C(=O)O)CC1=C(C(F)(F)F)C(F)(F)F (stereo not shown)
bin 1

Record NC1CC(C(=O)O)CC1=CC(F)(F)F (stereo not shown) [Compound 4] — which class?
bin 0

Note: place this compound into its band. Item: C=CC(N)CCC(=O)O (stereo not shown) [Compound 22, 4-am inohex-5-enoic acid, reference compound]
bin 2

More entries:
Note: place this compound into its band. Item: NC1CC(C(=O)O)CC1=C(Cl)Cl (stereo not shown)
bin 1

====

tested target: TgOAT
condition: time-dependent inactivators
log10 of kinact/KI reference
The common logarithm of kinact/KI in M⁻¹ s⁻¹ is what is listed.

Which log10 of kinact/KI value belongs to NC1CC(C(=O)O)CC1(F)F (centres unmarked) ?
3.00

Recorded log10 of kinact/KI for "NCc1c(CC(=O)O)cccc1C(F)(F)F" , please?
3.78

Find the recorded log10 of kinact/KI belonging to N[C@H](CF)CCC(=O)O [Compound 18, (S)-4-amino-5-fluoropentanoic acid] and report it.
4.56

Query (compound): NC1CC(C(=O)O)CC1=CC(F)(F)F (centres unmarked) [Compound 4] ; field requested: log10 of kinact/KI
2.26

Then this compound:
For the compound "N[C@H]1C[C@@H](C(=O)O)CC1=C(F)F" , what log10 of kinact/KI is on record?
4.62
